- Assayed system: α-glucosidase enzyme from Saccharomyces cerevisiae (Saccharomyces cerevisiae, UniProt P53341)
- Sequence (P53341 whole entry): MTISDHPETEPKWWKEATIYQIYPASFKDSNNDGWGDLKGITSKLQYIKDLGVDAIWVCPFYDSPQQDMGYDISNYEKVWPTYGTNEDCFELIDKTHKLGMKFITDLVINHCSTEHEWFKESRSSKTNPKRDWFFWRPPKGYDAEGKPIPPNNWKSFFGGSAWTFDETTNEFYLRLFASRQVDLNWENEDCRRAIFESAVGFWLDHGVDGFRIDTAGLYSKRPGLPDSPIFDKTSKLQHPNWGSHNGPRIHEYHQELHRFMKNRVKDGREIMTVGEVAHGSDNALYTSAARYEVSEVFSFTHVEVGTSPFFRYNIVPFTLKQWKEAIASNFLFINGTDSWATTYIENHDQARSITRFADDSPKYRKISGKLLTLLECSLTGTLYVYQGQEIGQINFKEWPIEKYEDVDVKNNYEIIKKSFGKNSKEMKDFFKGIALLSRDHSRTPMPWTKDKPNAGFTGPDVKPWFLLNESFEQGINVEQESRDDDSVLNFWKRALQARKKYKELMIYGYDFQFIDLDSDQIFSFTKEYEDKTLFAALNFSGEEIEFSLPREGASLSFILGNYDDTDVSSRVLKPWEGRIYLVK
Observation type: IC50 (µM)

Example cases with answers are listed next.
Exercise: Fill in the blank: the reported IC50 of CO[C@H]1OC(=O)C(c2ccc(O)cc2)=C1Cc1ccc2c(c1)CCC(C)(C)O2 [4a, (−)-Asperteretone D] is ____.
Key: 15.7

Exercise: Fill in the blank: the reported IC50 of COc1ccc(C2=C(Cc3ccc4c(c3)CC(C(C)(C)O)O4)[C@H](OC)OC2=O)cc1 (single isomer, unassigned; (+)) [3b, (+)-Asperteretone C] is ____.
Key: 49.8

Exercise: Fill in the blank: the reported IC50 of COC1OC(=O)C(c2ccc(O)cc2)=C1Cc1ccc(O)c(CCC(C)(C)O)c1 (stereo not drawn) is ____.
Key: 48.9

a: COC(=O)[C@H](Cc1ccc(O)c(CC=C(C)C)c1)[C@@H](C(=O)O)c1ccc(O)cc1 [1b, (+)-Asperteretone A]
b: CO[C@@H]1OC(=O)C(c2ccc(O)cc2)=C1Cc1ccc(O)c(CC=C(C)C)c1 [2b, (+)-Asperteretone B]
Exercise: Kindly identify the item with the lower IC50 figure among these two: a and b Answer format: the label of the selected item.
Key: b

a: CO[C@H]1OC(=O)C(c2ccc(O)cc2)=C1Cc1ccc(O)c(CC=C(C)C)c1 [2a, (−)-Asperteretone B]
b: COC(=O)[C@@H](Cc1ccc(O)c(CC=C(C)C)c1)[C@H](C(=O)O)c1ccc(O)cc1 [1a, (−)-Asperteretone A]
Exercise: Param pair: a , b . Output: the one whose IC50 is numerically greater. Answer format: the label of the selected item.
Key: b
(b: 45.4 µM, a: 17.3 µM)

P: CO[C@@H]1OC(=O)C(c2ccc(O)cc2)=C1Cc1ccc2c(c1)CCC(C)(C)O2 [4b, (+)-Asperteretone D]
Q: COc1ccc(C2=C(Cc3ccc4c(c3)CC(C(C)(C)O)O4)[C@@H](OC)OC2=O)cc1 (single isomer, unassigned; (-)) [3a, (−)-Asperteretone C]
Exercise: Param pair: P , Q . Output: the one whose IC50 is numerically greater. Answer format: the label of the selected item.
Key: Q
(Q: 52.2 µM, P: 18.9 µM)
